# System: IGROV1 ovarian
# Test Description: NCI tumour cell line growth inhibition, 48 h
Here the recorded TGI is given for each entry.

Record excerpt, results attached:
Molecule	Meas Value
CC1=C(C)C(=O)c2c(cc3ccccn23)C1=O	54.5 µM
Cc1[nH]ccc2c1[nH]c1cc(=O)ccc12	> 100 µM
CSc1ccc(C2OC(=O)c3ccccc32)c2ccccc12 (stereo not given)	> 100 µM
COc1cc(C2C(C(=O)O)=C(CO)Oc3cc4c(cc32)OCO4)cc(OC)c1O (stereo not given)	> 100 µM

Prompt: Which TGI value belongs to CN(C)CCNc1c2c(c(NCCN(C)C)c3[nH]ccc13)C(=O)c1ccccc1C2=O ?
Response: > 100 µM

Prompt: Find the recorded TGI belonging to COc1ccc(C2=Nc3ccccc3NC(=O)C2)cc1 and report it.
Response: > 100 µM

Prompt: May I ask what TGI has been recorded for O=C(Cc1ccccc1)NNc1nc(NNC(=O)c2ccncc2)nc(Nc2ccc([N+](=O)[O-])cc2)n1 ?
Response: > 10 µM

Prompt: Need TGI, item CN1CCC(n2cnc(-c3ccc(F)cc3)c2-c2ccnc(NCCO)n2)CC1
Response: > 25 µM

Prompt: Would you mind telling me what TGI value was observed for S=c1sc2c(s1)SCCCCSCCCCSc1sc(=S)sc1SCCCCSCCCCS2 ?
Response: > 100 µM

Prompt: Need TGI of O=C(/C=C/c1ccccc1)/C=N/N1C(=S)N(c2ccccc2)C(=Nc2ccccc2)C1=Nc1ccccc1 , thanks.
Response: > 100 µM

====

# Tested on: EKVX NSCLC
# Test Description: NCI tumour cell line growth inhibition, 48 h
Readings of TGI for the listed compounds

Compound	Tested System	Meas Value
[N-]=[N+]=Nc1c(C=O)c(=O)n2c3c(cccc13)CCC2	EKVX NSCLC	50.5 µM

Prompt: I'm curious: which TGI was measured for N#C/C(=C\c1ccc(O)c(O)c1)C(N)=S tested on EKVX NSCLC?
Response: > 100 µM

Prompt: What is its TGI for EKVX NSCLC? Entry: Nc1nc2c(c3ncncc13)C(c1cccc(C(F)(F)F)c1)Cc1ncncc1-2 (stereo unspecified)
Response: > 100 µM

Prompt: Give the reported TGI for COc1ccc2sc3c(NCCCN(C)C)nc4ccccc4c3c(=O)c2c1 (system: EKVX NSCLC).
Response: 2.93 µM

====

# Tested on: OVCAR-8 ovarian
# Test Description: NCI tumour cell line growth inhibition, 48 h; in the data active = GI50 below about 0.43 µM; inactive = the rest
Select the matching outcome among true = active, false = inactive

Field: example entries. Status: answers known.
Compound	Classification
CCCCCCCCCCCCCCCCN1CC2CCCCC2C1 (stereo not given)	false
CC1SC(c2ccccc2)N(CCc2cccs2)C1=O (stereo not given)	false
CC[C@@H](C(=O)O)C1CC[C@H](C)C([C@@H](C)[C@H](O)[C@H](C)C(=O)[C@H](CC)C2O[C@]3(C=C[C@@H](O)[C@]4(CC[C@@](C)(C5CC[C@](O)(CC)[C@H](C)O5)O4)O3)[C@H](C)C[C@@H]2C)O1 (stereo not given in full)	false
COC(=O)[C@@]1(C)CC[C@]2(C)CC[C@]3(C)C4=CC=C5C(=CC(=O)C(O)=C5C)[C@]4(C)[C@@H](O)C[C@@]3(C)[C@@H]2C1	false
N=C(N)c1ccc(-c2ccc(-c3cc(Cl)cc(Cl)c3)o2)nc1	false
CCc1nccc2c1nc(-c1nonc1N)n2CC	false

We next turn to a different compound, shown below.
Prompt: // return assay outcome for O=c1cc(-c2ccccc2)[nH]c2ccccc12
Response: false

====

# Test system: OVCAR-3 ovarian
# Test Description: NCI tumour cell line growth inhibition, 48 h
Listed here: items and their measured TGI.

# example entries with known answers
Compound	TGI
COC(C(=O)[O][Ge]([CH3])([CH3])[CH3])c1ccccc1 (centres undefined)	> 100 µM
Nc1ccccc1C#C/C=C\C#Cc1cccs1	24.8 µM
CCOC(=O)N/N=C(/OCC)c1ccccc1	> 100 µM
COc1ccc(/C=C2\NC(=S)N(CN3CCCCC3)C2=O)cc1	> 100 µM
C=CCOc1cccc(/C=C2\SC(=Nc3ccc(O)cc3)NC2=O)c1	3.15 µM

Prompt: Query the reported TGI for OVCAR-3 ovarian; item: NC(=O)NNc1nc2ccccc2c(=O)n1NC(=O)C(=O)Nc1ccc(Cl)cc1Cl
Response: > 100 µM

Prompt: Value wanted: TGI (OVCAR-3 ovarian) of entry CCCC1(NC(=O)C(F)(F)F)CC(OC)OC2COC(c3ccccc3)OC21 (centres undefined)
Response: > 100 µM

Prompt: OVCAR-3 ovarian / TGI / CC#CC#C/C=C1/O[C@]2(CCC(OC(C)=O)CO2)[C@@H]2O[C@H]12 (some centres undefined) : value?
Response: > 100 µM

Prompt: What value of TGI on OVCAR-3 ovarian does O=[N+]([O-])c1ccc(-c2csc3nc(-c4ccccc4)nn23)cc1 have?
Response: > 100 µM

Prompt: Look up TGI with OVCAR-3 ovarian for this compound: CNC(=O)OC(C)CN1c2ccccc2Sc2ccc(Cl)cc21 (centres undefined)
Response: > 10 µM

Prompt: # value lookup — system OVCAR-3 ovarian, readout TGI, item O=C(NCCO)Nc1ccc(-c2nc(N3CCOCC3)c3cccn3n2)cc1
Response: 9.82 µM

====

# Tested on: A549 NSCLC
# Test Description: NCI tumour cell line growth inhibition, 48 h
In this section we review reported TGI values for a set of compounds.

Prompt: Looking for the measured TGI of O=C1C(Br)=CC2(C=C1Br)CCNC1=C2C(=O)c2ccccc2C1=O , can you help?
Response: > 100 µM

====

# Tested on: HOP-18 NSCLC
# Test Description: NCI tumour cell line growth inhibition, 48 h
Reported values of TGI for individual entries

For orientation, consider the following solved cases.
Molecule	TGI
C#CCOCn1cnc2c(Cl)ncnc21	> 100 µM
Cn1cnc(CCc2ccccc2)n1	> 100 µM
Cc1c(C(=O)C/C(=N\O)C(=O)Nc2cc(Cl)c(Cl)cc2Cl)[n+](=O)c2ccccc2n1[O-]	82.4 µM
CC1=C(C)C(=O)c2c(cc3ccccn23)C1=O	68.2 µM
COc1cc(Cn2c3ccccc3c3cc(C)c4c(c32)C=CC(C)(CCC=C(C)C)O4)cc2c1[nH]c1ccccc12 (configuration not stated)	> 100 µM

Prompt: Any idea what TGI was measured for COc1cc(OC)c2c(c1)C(=O)C(CC(C)O)=CC2=O (configuration not stated) ?
Response: 30.4 µM

====

# System: NCI-H23 lung
# Test Description: NCI tumour cell line growth inhibition, 48 h
Measured Property: TGI

Compound	TGI
CCCCCCCCN=C(N)c1ccc(N2CCN(c3ccc(C(N)=NCCCCCCCC)cc3)CC2)cc1	6.49 µM

Prompt: TGI for CCOC(=O)c1nc2ccc(Cl)cc2c2c1Cc1ccccc1-2 ?
Response: > 100 µM

Prompt: Entry COc1cccc(-c2c(C#N)c(N)nc3c2CCS(=O)(=O)c2ccc(C)cc2-3)c1 has what TGI?
Response: > 100 µM

Prompt: Entry COC(=O)[C@H](C[C@H](Cc1ccccc1)NC(=O)c1csc([C@@H](C[C@H](C(C)C)N(C)C(=O)[C@@H](NC(=O)[C@H]2CCCCN2C)C(C)C)OC(C)=O)n1)NC(=O)OCc1ccccc1 : reported TGI = ?
Response: > 9 µM

Prompt: Sample COc1ccc2oc(=N)c(C(=O)NCc3ccccc3)cc2c1 — what was its TGI?
Response: 43.1 µM

Prompt: Fill in: TGI of CCCC1(NC(=O)C(F)(F)F)CC(OC)OC2COC(c3ccccc3)OC21 (centres undefined) is ___
Response: > 100 µM

Prompt: Would you mind telling me what TGI value was observed for COCCN(C(C)=O)C1CCC2(SCCS2)c2[nH]c3ccccc3c21 (centres undefined) ?
Response: > 100 µM

Prompt: Which TGI value belongs to NC1C[C@H](n2cc(/C=C/Br)c(=O)[nH]c2=O)C[C@@H]1CO (some centres undefined) ?
Response: > 100 µM

Prompt: For the compound shown here, O=C1C(Br)=CC2(C=C1Br)CCNC1=C2C(=O)c2ccccc2C1=O , give the reported TGI.
Response: 33.7 µM

====

# System: 786-0 renal
# Test Description: NCI tumour cell line growth inhibition, 48 h; in the data active means GI50 below about 0.43 µM; inactive means the rest
Select the matching outcome among active, inactive

Compound	Classification
COc1ccc(-c2c3c(N)nc(-c4ccncc4)nc3nc3c2c(C)nn3-c2ccccc2)cc1	inactive
CCCCCCCCCCCCCCCCN1CC2CCCCC2C1 (centres undefined)	inactive

Prompt: Would you mind telling me which call this test gave NCCOCCOCCNc1nc(Cc2ccccc2)nc(NCCCN2CCCC2=O)n1 ?
Response: inactive

Prompt: # lookup: test call for COc1ccc(-c2nn3c(-c4cc(F)c(Cl)cc4Cl)nnc3s2)cc1
Response: inactive

Prompt: // outcome(item) with item = COc1ccc2sc3c(NCCCN(C)C)nc4ccccc4c3c(=O)c2c1
Response: inactive

Prompt: Could you check what this test reported for COc1ccc(-c2n/c(=C\c3c(O)[nH]c4ccc(OC)cc34)cc3c2=Nc2ccccc2-3)cc1 ?
Response: inactive

Prompt: Each compound tested received a call. Report the one for O=C(NCCO)Nc1ccc(-c2nc(N3CCOCC3)c3cccn3n2)cc1 .
Response: active

Prompt: Field: outcome | Entry: Oc1cccc2ccc(N/N=C/c3cc(CN4CCCCC4)c(O)c4ncccc34)nc12
Response: active

Prompt: Recorded test outcome, item CCCCCCCCN=C(N)c1ccc(N2CCN(c3ccc(C(N)=NCCCCCCCC)cc3)CC2)cc1
Response: inactive

Prompt: Given COc1cccc(-n2ncc3c(N/N=C/c4ccc(C(=O)NCCN(C)C)cc4)ncnc32)c1 , state the outcome it received in this test.
Response: inactive

Prompt: Kindly provide the recorded test outcome for the following compound: CC(C)c1cc(-c2n[nH]c(=O)n2-c2ccc3c(ccn3C)c2)c(O)cc1O
Response: active

Prompt: Check the results log: what was the call for COC(=O)[C@H](C[C@H](Cc1ccccc1)NC(=O)c1csc([C@@H](C[C@H](C(C)C)N(C)C(=O)[C@@H](NC(=O)[C@H]2CCCCN2C)C(C)C)OC(C)=O)n1)NC(=O)OCc1ccccc1 ?
Response: active

Prompt: Hey, what did the test say about COc1ccc(/C(C#N)=C/c2ccccc2OC)cc1 ?
Response: inactive

Prompt: Check the results log: what was the call for CCCC(C)c1cc(Cc2cc(Cl)cc(Cl)c2O)c(O)c(Cc2cc(Cl)cc(Cl)c2O)c1 (centres undefined) ?
Response: inactive

Prompt: Recorded test outcome, item COc1cc2c(c(OC)c1)C1c3ccccc3NC(=O)N1CC2 (centres undefined)
Response: inactive

Prompt: Dear all, I need the recorded test outcome for Cn1cc(-c2ccc3occ(-c4cccc(-c5ccncc5)c4)c3n2)cn1 , thank you.
Response: inactive

Prompt: Identify the outcome logged in this assay for the compound shown: N#Cc1c(N2CCCC2)[nH]c(=O)c(C(c2c(Cl)cccc2Cl)c2c(O)c(C#N)c(N3CCCC3)[nH]c2=O)c1O
Response: inactive

Prompt: What did this assay record as the result for CN(C)CCNc1c2c(c(NCCN(C)C)c3[nH]ccc13)C(=O)c1ccccc1C2=O ?
Response: inactive

Prompt: Recorded test call requested for Cn1cccc1-c1cc(-c2cccs2)nc(N)c1C#N
Response: inactive
